- assay_explanation: Tmax in rat at 10 mg/kg, po administered as single dose by LC-MS/MS analysis
- Type: ADME, organism-based
- Parameters: dose 10 mg/kg, route oral
- experimental_context: in vivo
property_name: Tmax (h)

                               input_smiles  measured_number
0  Oc1ccc2c(c1)O[C@H](c1ccc(OCCN3CCCCC3)cc1)C1=C2CCOc2ccccc21              4.8
1  COc1ccc2c(c1)OCCC1=C2[C@@H](c2ccc(OCCN3CCCCC3)cc2)Oc2cc(O)ccc21                6
2  Oc1ccc2c(c1)O[C@H](c1ccc(OCCN3CCSCC3)cc1)C1=C2CCOc2cc(O)ccc21              4.8
3  COc1ccc2c(c1)O[C@H](c1ccc(OCCN3CCCCC3)cc1)C1=C2CCOc2cc(OC)ccc21                5
4  Oc1ccc2c(c1)O[C@H](c1ccc(OCCN3CCCCC3)cc1)C1=C2CCOc2cc(O)ccc21                5
5  COc1ccc2c(c1)O[C@H](c1ccc(OCCN3CCCCC3)cc1)C1=C2CCOc2cc(O)ccc21                6
